Assay: Antiamnesic activity in the mouse (step-down passive avoidance, amnesia induced by ECS)
Type: in vivo, mouse (CD1 male)
Conditions: po; 10 mg/kg OS, mouse, retest 24 h after training; read-out: Reversal of the amnesia (% vs controls), as the increase in the Step Down Latency
Protocol: 1) Antiamnesic activity in the mouse (step-down passive avoidance) […] The mouse was placed delicately on the wooden cube and the time it took to descend to the grid floor (SDL=step-down latency) was measured. When all four of the animal's paws were resting on the floor the continuous 0.2 mA shock started and the time taken by The mouse to remount the wooden cube (EL=escape latency) was measured. […]
QUANTITY_NAME: change in vivo at 10 mg/kg (%)
Supply the numeric figure in %, leaving out any unit text.

Query: change in vivo at 10 mg/kg; subject: N[C@@H](CCC(=O)O)C(=O)O [L-glutamic acid, reference compound] 0

Query: change in vivo at 10 mg/kg; subject: N[C@@H](CCC(=O)O)C(=O)NC1CCCCC1 22

Origin of values: patent US5723494A
